Data credit: patent US20100261699A1

system-tested: recombinant human liver GK (Homo sapiens, UniProt P35557)
Construct: made in house; host or cells: E. coli
Sequence (P35557 1-466 isoform P35557-2): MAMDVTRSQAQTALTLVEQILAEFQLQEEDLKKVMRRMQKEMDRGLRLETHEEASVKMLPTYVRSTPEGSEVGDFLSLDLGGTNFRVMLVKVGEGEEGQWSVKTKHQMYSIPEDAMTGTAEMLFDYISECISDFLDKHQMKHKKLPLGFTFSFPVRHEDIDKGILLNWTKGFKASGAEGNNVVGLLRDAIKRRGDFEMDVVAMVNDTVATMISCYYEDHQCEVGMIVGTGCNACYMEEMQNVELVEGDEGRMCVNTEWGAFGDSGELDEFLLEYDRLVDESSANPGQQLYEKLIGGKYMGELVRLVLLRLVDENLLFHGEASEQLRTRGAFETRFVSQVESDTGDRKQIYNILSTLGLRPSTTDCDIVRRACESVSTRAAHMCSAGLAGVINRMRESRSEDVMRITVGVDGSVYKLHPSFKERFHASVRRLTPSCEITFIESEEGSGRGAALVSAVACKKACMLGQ
method: Glucokinase-activating effect (Thio-NADH production via G6PDH-coupled assay)
Assay type: biochemical
assay-conditions: OD level of DMSO control taken as 100%; final glucose concentration 2.5 mM; 30° C.
experimental-readout: Emax

{"structure": "CN(C)CCOc1ccc(Sc2ccc(Sc3nncn3C)nc2C(=O)Nc2ccn(C)n2)cn1", "experimental-readout": "Emax", "observed": "880%"}
{"structure": "CN(C)CCOc1ccc(Sc2ccc(Sc3nncn3C)nc2C(=O)Nc2ccn(C)n2)cc1", "experimental-readout": "Emax", "observed": "890%"}
{"structure": "CCN1CC(COc2ccc(Sc3ccc(Sc4nncn4C)nc3C(=O)Nc3ccn(C)n3)cc2)C1", "experimental-readout": "Emax", "observed": "930%"}
{"structure": "CC(C)N1CC(COc2ccc(Sc3ccc(Sc4nncn4C)nc3C(=O)Nc3ccn(C)n3)cc2)C1", "experimental-readout": "Emax", "observed": "960%"}
